- assay-info: The drug is tested on WLS-007 corresponding to human gut metagenome with ENA study accession number: PRJEB37062 and ENA sample accession number: ERS12561742 for biotransformation under anaerobic condition. The drug concentrations were measured over 9 timepoints collected between 0 and 24 hours of incubation by liquid-chromatography-coupled mass spectrometry (LC–MS); also: call rule not given here
- assay-conditions: 2 µM
reported-endpoint: Bacterial Biotransformation

Consider the following illustrative entries.
{"columns": ["compound", "Bacterial Biotransformation"],
 "data": [
  ["CC(C)(C(=O)O)c1ccc(C(O)CCCN2CCC(C(O)(c3ccccc3)c3ccccc3)CC2)cc1 (centres undefined) [FEXOFENADINE]", "Compound NOT metabolized"],
  ["COc1cc2nc(N3CCN(C(=O)c4ccco4)CC3)nc(N)c2cc1OC [PRAZOSIN]", "Compound NOT metabolized"],
  ["CN1CCC(=C2c3ccccc3CCc3cccnc32)CC1.O=C(O)/C=C\\C(=O)O.O=C(O)/C=C\\C(=O)O [AZATADINE MALEATE]", "Compound NOT metabolized"],
  ["CN1CC(=O)N2[C@H](c3ccc4c(c3)OCO4)c3[nH]c4ccccc4c3C[C@@H]2C1=O", "Compound metabolized"],
  ["CCN(CC)CCOC(=O)C(Cc1cccc2ccccc12)CC1CCCO1.O=C(O)C(=O)O (centres undefined) [NAFRONYL OXALATE]", "Compound metabolized"]
]}

Request: Identify the reported Bacterial Biotransformation for the following entry. COC(=O)C1=C(C)NC(C)=C(C(=O)OC(C)C)C1c1cccc2nonc12 (centres undefined) [ISRADIPINE]
Response: Compound metabolized

Request: Given Cc1ccc(S(=O)(=O)NC(=O)NN2CCCCCC2)cc1 [TOLAZAMIDE] , respond with its Bacterial Biotransformation.
Response: Compound metabolized

Request: Retrieve Bacterial Biotransformation measured for C[C@@H]1C[C@H]2[C@@H]3CCC4=CC(=O)C=C[C@]4(C)[C@@]3(F)[C@@H](O)C[C@]2(C)[C@@]1(O)C(=O)CO [DEXAMETHASONE] and print it.
Response: Compound NOT metabolized

Request: In one line, give reported Bacterial Biotransformation of the entry N#Cc1ccc(C(c2ccc(C#N)cc2)n2cncn2)cc1 [LETROZOLE] .
Response: Compound NOT metabolized

* * *

- assay-conditions: human gut metagenome, 24 h, 2 µM
reported-endpoint: Bacterial Biotransformation

In the examples that follow, each entry is paired with its recorded Bacterial Biotransformation.
{"columns": ["molecule", "Bacterial Biotransformation"],
 "data": [
  ["Cc1nc(-c2ccc(OCC(C)C)c(C#N)c2)sc1C(=O)O", "Compound metabolized"],
  ["CC[C@H](C)C(=O)O[C@H]1C[C@@H](C)C=C2C=C[C@H](C)[C@H](CC[C@@H]3C[C@@H](O)CC(=O)O3)[C@H]21", "Compound NOT metabolized"],
  ["CCC(=O)NCC[C@@H]1CCc2ccc3c(c21)CCO3", "Compound metabolized"],
  ["CC(C)c1nc(CN(C)C(=O)N[C@H](C(=O)N[C@@H](Cc2ccccc2)C[C@H](O)[C@H](Cc2ccccc2)NC(=O)OCc2cncs2)C(C)C)cs1", "Compound NOT metabolized"],
  ["O=c1[nH]c2ccccc2n1C1CCN(CCCC(c2ccc(F)cc2)c2ccc(F)cc2)CC1 [PIMOZIDE]", "Compound metabolized"],
  ["C=CCN1CC[C@]23c4c5ccc(O)c4O[C@H]2C(=O)CC[C@@]3(O)[C@H]1C5", "Compound NOT metabolized"],
  ["OC(Cn1cncn1)(Cn1cncn1)c1ccc(F)cc1F", "Compound NOT metabolized"],
  ["COC1=CC(=O)C[C@@H](C)[C@]12Oc1c(Cl)c(OC)cc(OC)c1C2=O", "Compound metabolized"]
]}

Request: Let me know recorded Bacterial Biotransformation for "COc1ccc2c(c1OC)C(=O)O[C@@H]2[C@H]1c2c(cc3c(c2OC)OCO3)CCN1C" , thanks.
Response: Compound metabolized

Request: Quick one: give measured Bacterial Biotransformation for COC(=O)C1=C(C)NC(C)=C(C(=O)OC(C)C)C1c1cccc2nonc12 (stereo unspecified)
Response: Compound metabolized

Request: For the molecule CCN(CC)CCNC(C(=O)OCCC(C)C)c1ccccc1.Cl.Cl (stereo unspecified) , give its measured Bacterial Biotransformation value.
Response: Compound metabolized

Request: State its Bacterial Biotransformation for this molecule: CCN(CC)CCNC(=O)c1cc(Cl)c(N)cc1OC [METOCLOPRAMIDE]
Response: Compound NOT metabolized

Request: Give recorded Bacterial Biotransformation. "CC(C)(C#N)c1cc(Cn2cncn2)cc(C(C)(C)C#N)c1"
Response: Compound NOT metabolized

* * *

- assay-info: The drug is tested on WLS-027 corresponding to human gut metagenome with ENA study accession number: PRJEB37062 and ENA sample accession number: ERS12561744 for biotransformation under anaerobic condition. The drug concentrations were measured over 9 timepoints collected between 0 and 24 hours of incubation by liquid-chromatography-coupled mass spectrometry (LC–MS)
- assay-conditions: 2 µM
reported-endpoint: Bacterial Biotransformation

Recorded results for 5 compounds are shown here.
{"columns": ["compound", "reported-endpoint", "measured-value"],
 "data": [
  ["CCCCC1=NC2(CCCC2)C(=O)N1Cc1ccc(-c2ccccc2-c2nnn[nH]2)cc1", "Bacterial Biotransformation", "Compound metabolized"],
  ["CC(=O)CC(c1ccccc1)c1c(O)c2ccccc2oc1=O (stereo not drawn)", "Bacterial Biotransformation", "Compound metabolized"],
  ["CCOC(=O)[C@H](CCc1ccccc1)N[C@@H](C)C(=O)N1[C@H](C(=O)O)C[C@H]2CCCC[C@@H]21", "Bacterial Biotransformation", "Compound metabolized"],
  ["COC1=CC(=O)C[C@@H](C)[C@]12Oc1c(Cl)c(OC)cc(OC)c1C2=O", "Bacterial Biotransformation", "Compound metabolized"],
  ["CCCC(=O)Nc1ccc(OCC(O)CNC(C)C)c(C(C)=O)c1 (stereo not drawn)", "Bacterial Biotransformation", "Compound NOT metabolized"]
]}

Request: Give recorded Bacterial Biotransformation. "C[C@@H]1CC[C@H]2[C@@H](C)C(=O)O[C@@H]3O[C@@]4(C)CC[C@@H]1[C@]32OO4"
Response: Compound metabolized

Request: Could you please provide reported Bacterial Biotransformation for CN(C)CCc1c[nH]c2ccc(Cn3cncn3)cc12.O=C(O)c1ccccc1 [RIZATRIPTAN BENZOATE] ? Thanks!
Response: Compound NOT metabolized

Request: Hello, please tell me recorded Bacterial Biotransformation for this one: CN1C(=O)CCS(=O)(=O)C1c1ccc(Cl)cc1 (stereo not drawn)
Response: Compound NOT metabolized

* * *

- assay-conditions: human gut metagenome, 24 h, 2 µM
reported-endpoint: Bacterial Biotransformation

{"columns": ["compound", "Bacterial Biotransformation"],
 "data": [
  ["COc1ccccc1OCC(O)CN1CCN(CC(=O)Nc2c(C)cccc2C)CC1 (centres undefined)", "Compound NOT metabolized"],
  ["CCC1(c2ccc(N)cc2)CCC(=O)NC1=O (centres undefined) [AMINOGLUTETHIMIDE]", "Compound NOT metabolized"],
  ["O=C(Nc1ccccc1)OCC(CN1CCCCC1)OC(=O)Nc1ccccc1 (centres undefined)", "Compound metabolized"],
  ["COc1ccccc1OCC(O)COC(N)=O (centres undefined)", "Compound NOT metabolized"],
  ["CC(C)c1nc(CN(C)C(=O)N[C@H](C(=O)N[C@@H](Cc2ccccc2)C[C@H](O)[C@H](Cc2ccccc2)NC(=O)OCc2cncs2)C(C)C)cs1", "Compound metabolized"]
]}

Request: Retrieve Bacterial Biotransformation measured for CN1C(=O)CCS(=O)(=O)C1c1ccc(Cl)cc1 (centres undefined) and print it.
Response: Compound NOT metabolized

Request: Supply measured Bacterial Biotransformation of COc1ccccc1N1CCN(CC(O)COc2cccc3ccccc23)CC1 (centres undefined) in your reply.
Response: Compound NOT metabolized

Request: Query Bacterial Biotransformation for NC(CO)(CO)CO.O=C(c1ccccc1)c1ccc2n1CCC2C(=O)O (centres undefined)
Response: Compound metabolized

Request: Check the records and state Bacterial Biotransformation for CN1C(=O)CC(C)(c2ccccc2)C1=O (centres undefined) [METHSUXIMIDE]
Response: Compound NOT metabolized

Request: For the compound "O=c1[nH]c2ccccc2n1CCCN1CCC(n2c(=O)[nH]c3cc(Cl)ccc32)CC1" , report Bacterial Biotransformation.
Response: Compound NOT metabolized

Request: Identify measured Bacterial Biotransformation corresponding to CS(=O)(=O)O.OC(CCN1CCCCC1)(c1ccccc1)c1ccccc1 [PRIDINOL METHANESULFONATE]
Response: Compound metabolized

Request: Return reported Bacterial Biotransformation. Input compound: CC(CN(C)C)CN1c2ccccc2CCc2ccccc21.O=C(O)/C=C\C(=O)O (centres undefined) [TRIMIPRAMINE MALEATE]
Response: Compound metabolized

Request: Specify reported Bacterial Biotransformation for the compound shown: Cc1nc2n(c(=O)c1CCN1CCC(c3noc4cc(F)ccc34)CC1)CCCC2O (centres undefined)
Response: Compound metabolized

Request: State its Bacterial Biotransformation for this compound: "CCOC(=O)[C@H](CCc1ccccc1)N[C@@H](C)C(=O)N1[C@H](C(=O)O)C[C@@H]2CCC[C@@H]21"
Response: Compound metabolized

Request: Annotate the compound "Cc1nc2n(c(=O)c1CCN1CCC(c3noc4cc(F)ccc34)CC1)CCCC2" with its measured Bacterial Biotransformation.
Response: Compound metabolized
